Source: PubChem BioAssay AID1745844

- System: rodent lifetime carcinogenesis bioassay, tumor incidence TD50
- TEST_PROTOCOL: carcinogenic potency in animals, long-term in vivo studies, CPDB compilation (AID 1745844)
- EXPERIMENTAL_CONDITIONS: rat; strain Wistar; both sexes; in feed; site: liver; lesion: hepatoma; dosed 95 weeks; study length 104 weeks
Activity calls are given as the source filed them. No rule for the calls is given here.
MEASUREMENT_TYPE: TD50

Just so you know, measured TD50 for CCCCOCCOCCOCc1cc2c(cc1CCC)OCO2 came out at 22500 mg/kg/day (inactive)

* * *

- Tested on: rodent lifetime carcinogenesis bioassay, tumor incidence TD50
- TEST_PROTOCOL: carcinogenic potency in animals, long-term in vivo studies, CPDB compilation (AID 1745844)
- EXPERIMENTAL_CONDITIONS: mouse; strain B6C3F1; males; in feed; site: lung; lesion: alveolar/bronchiolar adenoma + alveolar/bronchiolar carcinoma; dosed 103 weeks; study length 103 weeks
Measured TD50 of individual entries
Respond numerically; units are mg/kg/day and should not be typed.

Lookup result for O=S(=O)(O)c1cc(S(=O)(=O)O)c2c(N=Nc3ccccc3)c(O)ccc2c1 ; measured TD50: 22000
